Data provenance is the FLAb antibody collection (doi:10.1101/2023.12.08.570889).

# assay.system: C5, P01031
# protocol.notes: Kd (SPR)
measured.attribute: pKd
Answer as the number alone; pKd is minus log10 of concentration in mol/L.

unnamed (protein) chain 1: QVQLVQSGAEVKKPGASVKVSCKASGYIFSNYWIQWVRQAPGQGLEWMGEILPGSGSTEYTENFKDRVTMTRDTSTSTVYMELSSLRSEDTAVYYCARYRYGDTPTIYFDYWGQGTLVTVSS chain 2: DIQMTQSPSSLSASVGDRVTITCGASENIYGALNWYQQKPGKAPKLLIYGATNLADGVPSRFSGSGSGTDFTLTISSLQPEDFATYYCQNVLNTPLTFGQGTKVEIK
6.16
unnamed (protein) chain 1: QVQLVQSGAEVKKPGASVKVSCKASGYIFSNYWIQWVRQAPGQGLEWMGEILPGSGSTEYTENFKDRVTMTRDTSTSTVYMELSSLRSEDTAVYYCARDRSYGDSSWALDAWGQGTLVTVSS chain 2: DIQMTQSPSSLSASVGDRVTITCGASENIYGALNWYQQKPGKAPKLLIYGATNLADGVPSRFSGSGSGTDFTLTISSLQPEDFATYYCQNVLNTPLTFGQGTKVEIK
5.40
unnamed (protein) chain 1: QVQLVQSGAEVKKPGASVKVSCKASGYIFSNYWIQWVRQAPGQGLEWMGEILPGSGSTEYTENFKDRVTMTRDTSTSTVYMELSSLRSEDTAVYYCARYYYGDTPYIYFDYWGQGTLVTVSS chain 2: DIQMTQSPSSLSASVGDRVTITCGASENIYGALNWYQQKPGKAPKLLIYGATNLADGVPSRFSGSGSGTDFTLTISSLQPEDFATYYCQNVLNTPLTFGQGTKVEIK
6.90
unnamed (protein) chain 1: QVQLVQSGAEVKKPGASVKVSCKASGYTFTSYWIQWVRQAPGQGLEWMGEIHPGSGYTEYTENFKDRVTMTRDTSTSTVYMELSSLRSEDTAVYYCARYRYGDTPDIYFDYWGQGTLVTVSS chain 2: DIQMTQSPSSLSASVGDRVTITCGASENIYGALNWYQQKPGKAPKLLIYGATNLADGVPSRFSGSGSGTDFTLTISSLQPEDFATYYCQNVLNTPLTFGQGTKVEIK
6.22
unnamed (protein) chain 1: QVQLVQSGAEVKKPGASVKVSCKASGYIFSNYWIQWVRQAPGQGLEWMGEILPGSGSTEYTENFKDRVTMTRDTSTSTVYMELSSLRSEDTAVYYCARYYYGDTPFIYFDYWGQGTLVTVSS chain 2: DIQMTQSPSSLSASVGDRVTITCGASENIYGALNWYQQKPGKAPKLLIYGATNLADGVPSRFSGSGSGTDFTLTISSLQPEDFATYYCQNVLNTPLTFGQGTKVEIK
7.02
unnamed (protein) chain 1: QVQLVQSGAEVKKPGASVKVSCKASGYIFSNYWIQWVRQAPGQGLEWMGEILPGSGSTEYTENFKDRVTMTRDTSTSTVYMELSSLRSEDTAVYYCARLRYGDTPFIYFDYWGQGTLVTVSS chain 2: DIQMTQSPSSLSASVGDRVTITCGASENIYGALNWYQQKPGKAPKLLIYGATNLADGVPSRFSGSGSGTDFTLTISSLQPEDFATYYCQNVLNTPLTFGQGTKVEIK
6.03

Record unnamed (protein) chain 1: QVQLVQSGAEVKKPGASVKVSCKASGYTFTSYWIQWVRQAPGQGLEWMGEIKPGSGYTEYTENFKDRVTMTRDTSTSTVYMELSSLRSEDTAVYYCARYRYGDTPIIYFDYWGQGTLVTVSS chain 2: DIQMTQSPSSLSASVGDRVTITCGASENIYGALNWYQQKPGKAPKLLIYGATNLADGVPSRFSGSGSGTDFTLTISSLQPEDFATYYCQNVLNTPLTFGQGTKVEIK . Reported pKd: 6.29

Item: unnamed (protein) chain 1: QVQLVQSGAEVKKPGASVKVSCKASGYTFTSYWIQWVRQAPGQGLEWMGEIHPGSGETEYTENFKDRVTMTRDTSTSTVYMELSSLRSEDTAVYYCARYRYGDTPYIYFDYWGQGTLVTVSS chain 2: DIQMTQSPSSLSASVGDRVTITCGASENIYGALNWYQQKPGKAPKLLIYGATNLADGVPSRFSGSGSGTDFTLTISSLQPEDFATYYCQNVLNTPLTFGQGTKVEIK | pKd: 6.40

Lookup result for unnamed (protein) chain 1: QVQLVQSGAEVKKPGASVKVSCKASGYIFSNYWIQWVRQAPGQGLEWMGEILPGSGSTEYTENFKDRVTMTRDTSTSTVYMELSSLRSEDTAVYYCARYRYGDTPFIYFDYWGQGTLVTVSS chain 2: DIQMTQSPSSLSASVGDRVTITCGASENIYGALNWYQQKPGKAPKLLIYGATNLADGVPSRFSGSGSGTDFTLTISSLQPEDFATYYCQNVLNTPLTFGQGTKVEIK ; measured pKd: 6.41

Looking up unnamed (protein) chain 1: QVQLVQSGAEVKKPGASVKVSCKASGYTFTSYWIQWVRQAPGQGLEWMGEIHPGSGYTEYTENFKDRVTMTRDTSTSTVYMELSSLRSEDTAVYYCARYRYGDTPIIYFDYWGQGTLVTVSS chain 2: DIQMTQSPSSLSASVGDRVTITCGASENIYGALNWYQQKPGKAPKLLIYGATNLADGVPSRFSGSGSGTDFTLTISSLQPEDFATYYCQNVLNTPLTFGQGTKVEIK , I see its pKd listed as 5.64
